Attribution: ChEMBL document CHEMBL5303304

Growth Rate values, listed per item
Test system: Fibroblast
procedure_summary: Incucyte cell viability with human fibroblast; also: unitless GR value; below 1 slowed growth and below 0 cell loss
Type: toxicity, cell-based
experimental_parameters: 0 h, 10 µM, compound concentration 10 uM, replicate number 1

molecule	experimental_target	Growth Rate
O=C1NC(NC23CC4CC(CC(C4)C2)C3)=N/C1=C\c1ccc2ncsc2c1	Fibroblast	0.57
CCN1C(=O)/C(=C(\NC2CCN(C)CC2)c2ccc3c(c2)OCO3)c2cc(C(C)=O)ccc21	Fibroblast	-1
CCc1ccc(-c2ncn(CC3(F)CCN(C)CC3)c2-c2ccnc3[nH]ccc23)nc1	Fibroblast	0.78
CN(C(=O)CCOCCOCCOCCOCCNc1cccc2c1C(=O)N(C1CCC(=O)NC1=O)C2=O)[C@H]1CC[C@@]2(C)[C@@H](CC[C@@H]3[C@@H]2CC[C@]2(C)[C@@H](c4ccc5ccncc5c4)CC[C@@H]32)C1 (stereo partly drawn)	Fibroblast	-1
CO[C@@H](C)CN1CC[C@]2(C)c3cc(O)ccc3C[C@H]1C2(C)C.Cl	Fibroblast	-1
CNc1nc(-c2ccc3c(N)n[nH]c3c2)cc(N2C[C@@H](C(=O)NC3CCCCC3)CC[C@H]2C)n1	Fibroblast	-0.99
CN1C(=O)Cc2ccc(-c3ccc(C[C@@H](C#N)NC(=O)[C@H]4N[C@@H]5CC[C@H]4C5)c(F)c3)cc21	Fibroblast	-1
COc1cc(NC(=O)c2ccc(-c3ccc(Cl)cc3)o2)cc(OC)c1	Fibroblast	0.51

----------
System: HEK-293T
procedure_summary: Incucyte cell viability with HEK293T; also: unitless GR value; below 1 slowed growth and below 0 cell loss
Type: toxicity, cell-based
experimental_parameters: human, 12 h, 10 µM, compound concentration 10 uM, replicate number 1
Note to self: values exactly at 0.5 are true. So Growth Rate at or above 0.5 is true, below is false.

                                   molecule  classification
0  CNC1(C)C2CCC(C2)C1(C)C.Cl (stereo not given) [MECAMYLAMINE HYDROCHLORIDE]            true
1  COc1ccccc1-n1nc(C2CC(C)(C)OC(C)(C)C2)cc1-c1ccc(Cl)cc1           false
2  COc1nc2ccc([C@@](O)(c3ccccc3)C3CCN(C(C)=O)CC3)cc2c(Cl)c1Cc1ccc(-n2cccn2)cc1 [JNJ-54119936]            true
3    O=C1NCc2ccc3c(-c4cccc(Cl)c4)c[nH]c3c21           false
4  Cc1nsc(Nc2cnc(C(F)(F)F)cn2)c1C(=O)Nc1ccc(O[C@H]2CCCN(CC(F)(F)F)C2)nc1           false

----------
Tested on: U2OS
procedure_summary: Incucyte cell viability with U2OS; also: unitless GR value; below 1 slowed growth and below 0 cell loss
Assay type: toxicity, cell-based
experimental_parameters: human, 12 h, 10 µM, compound concentration 10 uM, replicate number 1
The threshold is 0.8. Values of Growth Rate beneath it are tagged condition met; values meeting or exceeding it are tagged condition not met.

>>> print(df.to_string())
                                    compound     classification
 0  O=C(Nc1cc(C(F)(F)F)cc(C(F)(F)F)c1)c1cc(Cl)ccc1O      condition met
 1  CS(=O)(=O)O.C[C@H](NC(=O)c1cnc2n1[C@](C)(Cc1ccc(C#N)cc1)C(=O)N2c1cc(Cl)c(F)c(Cl)c1)C(=O)NC1(c2ccccn2)CC1  condition not met
 2  Cc1c(-c2cc(-c3ccccc3Cl)no2)cnn1C1CCNCC1.Cl      condition met
 3  C[C@@H]1CC(=O)N(C2CC2)N=C1c1ccc(NC(=O)N2Cc3ccncc3C2)cc1  condition not met
 4  Cc1nnsc1C(=O)Nc1ccc(-n2nc(C(F)(F)F)cc2C(F)(F)F)cc1      condition met
 5  COc1cc(Cl)c(C(=O)N[C@@H](CN[C@H]2CC[C@@H](N)CC2)Cc2ccc(C#N)cc2)cc1-c1ccc(CN[C@H](C)c2ccc(C)cc2)o1      condition met
 6     O=C(Nc1cccc(C(F)(F)F)c1)c1cc(Cl)ccc1O      condition met
 7  CC(C)(C)NC(=O)c1cncn1C1CCN(c2ccc(-c3nnc(C(F)(F)F)o3)cn2)CC1      condition met
 8  Cc1cc(=O)oc2cc(NC(=O)[C@H](Cc3ccc(I)cc3)NC(=O)[C@H]3N[C@@H]4CC[C@H]3C4)ccc12.O=C(O)C(F)(F)F  condition not met
 9  C/C(=C\C(=O)Nc1ccccc1C(=O)[O-])c1ccc2ccccc2c1.[Na+]  condition not met
10  O=S(=O)(Nc1ccc(C(O)(C(F)(F)F)C(F)(F)F)cc1)c1cccs1      condition met
11  CN(C)C/C=C/C(=O)Nc1cc2c(Nc3ccc(F)c(Cl)c3)ncnc2cc1OC[C@@H]1CCCO1      condition met
12  CN(C)c1ccc(-c2cc3ncccc3c(OCCCCO)n2)cc1.O=C(O)C(F)(F)F  condition not met
13    O=C(O)Cc1cc(I)c(Oc2ccc(O)c(I)c2)c(I)c1      condition met
14  Nc1nc2cc(-c3cc(Cl)ccc3Oc3cc(F)c(S(=O)(=O)Nc4ncns4)cc3F)ccc2[nH]1  condition not met
15  O=C(O)CNC(=O)c1c(O)c2ccccc2n(Cc2ccccc2)c1=O  condition not met
16  O=C1CN(c2ccccc2F)C(NCCN2CCOCC2)=C1c1nc2cc(Br)ccc2c(=O)[nH]1  condition not met
17  C[C@@H](CN1CCC(Cc2ccccc2)CC1)[C@@H](O)c1ccc(O)cc1  condition not met
18  N[C@@H]1CCCC[C@H]1Oc1ccc2ncc(-c3cc4ccccc4o3)n2n1      condition met
19  CN[C@@H](C)C(=O)N[C@H](C(=O)N1CCC[C@H]1C(=O)N[C@@H]1CCCc2ccccc21)C1CCCCC1.Cl  condition not met
20  O=C(NCc1ccc(F)cc1)C1CCN(S(=O)(=O)c2cc(Cl)cc(Cl)c2)CC1  condition not met
21  CC(C)(C)c1cc(NC(=O)c2csc(Nc3ccccn3)n2)no1      condition met
22  CC(C)c1ccc(CC(=O)N[C@H](C)c2ccc(OCC(F)(F)F)cn2)cc1 [SUVECALTAMIDE]      condition met
23  CSc1ccc(C(=O)/C=C/c2cc(C)c(OC(C)(C)C(=O)O)c(C)c2)cc1      condition met
24                  c1ccc2nc(N3CCNCC3)ccc2c1      condition met
25  Cn1ccc(Cn2cnc(-c3ccc(F)cc3)c2-c2ccnc3[nH]ccc23)n1  condition not met
26  CCOC(=O)N1CCC(c2cc(O)n3nc(C)c(-c4ccc(F)cc4)c3n2)CC1  condition not met
27  Cc1nc(Nc2cnn(C3CCNCC3)c2)nc2c1N(C)C(=O)c1cc3ccccc3cc1N2C      condition met
28  COc1ccc(OC)c(-c2ccc(NC(=O)c3ccncc3F)cc2)c1      condition met
29    COc1ccc(-n2nc3c4ccccc4[nH]cc-3c2=O)cc1  condition not met
30  CNCc1ccc(-c2cc(-c3nc(-c4ccc(S(=O)(=O)C(C)C)cc4)cnc3N)on2)cc1      condition met
31  CC(C)[C@@H]1CC[C@@H](C)C[C@@H]1P(=O)(c1ccccc1)c1ccccc1      condition met
32  CC[C@H](CO)Nc1nc(Nc2cccc(-c3ccccn3)c2)c2ncn(C(C)C)c2n1.Cl.O  condition not met
33  CN(CC(=O)Nc1ccc(F)c(F)c1F)C(=O)c1ccc2c(c1)OCCO2      condition met
34  CC(C)(O)c1coc(S(=O)(=O)NC(=O)Nc2c3c(cc4c2CCC4)CCC3)c1  condition not met

----------
Growth Rate values, listed per item
Test system: HEK-293T
procedure_summary: Incucyte cell viability with HEK293T; also: unitless GR value; below 1 slowed growth and below 0 cell loss
Assay type: toxicity, cell-based
experimental_parameters: human, 18 h, 10 µM, compound concentration 10 uM, replicate number 1

molecule	Growth Rate
c1ccc2c(-c3coc4cc(-c5ccc(N6CCNCC6)cc5)cnc34)ccnc2c1	-0.42
COc1cc(Nc2cnc(C#N)c(O[C@H](C)CN(C)C)n2)ncc1-c1cnn(C)c1	-0.17
CC(C)N1CCN(Cc2cnc(-c3cc(-c4cccc5[nH]ccc45)cc4[nH]ncc34)o2)CC1	0.26
CCC(=O)N[C@@H]1CC[C@H](C(=O)N(C)c2ccc(-c3nc4ccccc4o3)cc2)C1	0.8
CC(C)Nc1ncnc2cc(OCc3cccc([S@@](C)(=N)=O)c3)c(Br)cc12	0.82
C=CC(=O)Nc1ccc2[nH]c(=O)n(C3CCN(Cc4ccc(-c5ccc6c(c5)NC(=O)CO6)cc4)CC3)c2c1	0.28
O=C1COc2cc(C(=O)N(Cc3ccc(C(=O)Nc4ccncn4)cc3)C3CC3)ccc2N1	0.75
C[C@@H]1CC(=O)N(C2CC2)N=C1c1ccc(NC(=O)N2Cc3ccncc3C2)cc1	0.46
COc1ccc(F)c(F)c1C(=O)c1cnc(NC2CCN(S(C)(=O)=O)CC2)nc1N	-0.15
CC(C)(O)C(=O)N1CCN(c2ccc(C(F)(F)F)c(C3=C(c4c[nH]c5ccccc45)C(=O)NC3=O)c2)CC1	0.83
O=C(NC1CCNCC1)c1n[nH]cc1NC(=O)c1c(Cl)cccc1Cl	-0.2
Cn1c(C2(NC(=O)c3ccc4c(C5CCCC5)c(-c5ncc(Br)cn5)n(C)c4c3)CCC2)nc2ccc(/C=C/C(=O)[O-])cc21.[Na+] [DELEOBUVIR SODIUM]	0.92
COc1cc(C(=O)NCCOCCOCCOCC(=O)N[C@H](C(=O)N2C[C@H](O)C[C@H]2C(=O)NCc2ccc(-c3scnc3C)cc2)C(C)(C)C)ccc1Nc1ncc(C(F)(F)F)c(Oc2cccc3c2C(=O)CC3)n1	0
CCS(=O)(=O)c1ccc(OC)c(Nc2ncc(-c3cccc(F)c3)o2)c1 [GW621970X]	0.22
Oc1c(CN2CCCC2)cc(COCc2ccccc2)c2cccnc12	-0.09
CC1(C)CCN(C(=O)C2CN(c3c4c(nc5ccnn35)CCNCC4)C2)C1.O=C(O)C(F)(F)F	0.87
Cc1c(C(=O)NCCCN(C)C)sc2ncnc(Nc3ccc(F)cc3OC(C)CF)c12 (configuration not stated)	-0.13
